From: the supplement of paper PMC5998384

# solubility in G1/S (log2) per entry
System: HeLa Kyoto
Assay: solubility in G1/S (NP-40 vs SDS abundance) (log2 ratio); higher = more soluble
Settings: cell cycle stage: G1/S
I only need the number, thanks.

Consider the sequence MAAAAAAAAAAGAAGGRGSGPGRRRHLVPGAGGEAGEGAPGGAGDYGNGLESEELEPEELLLEPEPEPEPEEEPPRPRAPPGAPGPGPGSGAPGSQEEEEEPGLVEGDPGDGAIEDPELEAIKARVREMEEEAEKLKELQNEVEKQMNMSPPPGNAGPVIMSIEEKMEADARSIYVGNVDYGATAEELEAHFHGCGSVNRVTILCDKFSGHPKGFAYIEFSDKESVRTSLALDESLFRGRQIKVIPKRTNRPGISTTDRGFPRARYRARTTNYNSSRSRFYSGFNSRPRGRVYRGRARATSWYSPY [PABPN1] and give its measured solubility in G1/S (log2). 0.016

Consider the sequence MSSEEGKLFVGGLNFNTDEQALEDHFSSFGPISEVVVVKDRETQRSRGFGFITFTNPEHASVAMRAMNGESLDGRQIRVDHAGKSARGTRGGGFGAHGRGRSYSRGGGDQGYGSGRYYDSRPGGYGYGYGRSRDYNGRNQGGYDRYSGGNYRDNYDN [RBM3] and give its measured solubility in G1/S (log2). 0.11

Consider the sequence MAGRGGAARPNGPAAGNKICQFKLVLLGESAVGKSSLVLRFVKGQFHEYQESTIGAAFLTQTVCLDDTTVKFEIWDTAGQERYHSLAPMYYRGAQAAIVVYDITNTDTFARAKNWVKELQRQASPNIVIALAGNKADLASKRAVEFQEAQAYADDNSLLFMETSAKTAMNVNEIFMAIAKKLPKNEPQNATGAPGRNRGVDLQENNPASRSQCCSN [RAB5C] and give its measured solubility in G1/S (log2). 0.382

---

Tested on: HeLa Kyoto
Experiment: solubility in G1/S (NP-40 vs SDS abundance) (log2 ratio); higher = more soluble
Details: cell cycle stage: G1/S
Tag: class 1 if measured solubility in G1/S (log2) is not below 0.3, class 0 if it is.

Consider the following illustrative entries.
sequence.record	label.value
MSQKQEEENPAEETGEEKQDTQEKEGILPERAEEAKLKAKYPSLGQKPGGSDFLMKRLQKGQKYFDSGDYNMAKAKMKNKQLPSAGPDKNLVTGDHIPTPQDLPQRKSSLVTSKLAGGQVE [ENSA]	class 0
MSVAGLKKQFHKATQKVSEKVGGAEGTKLDDDFKEMERKVDVTSRAVMEIMTKTIEYLQPNPASRAKLSMINTMSKIRGQEKGPGYPQAEALLAEAMLKFGRELGDDCNFGPALGEVGEAMRELSEVKDSLDIEVKQNFIDPLQNLHDKDLREIQHHLKKLEGRRLDFDYKKKRQGKIPDEELRQALEKFDESKEIAESSMFNLLEMDIEQVSQLSALVQAQLEYHKQAVQILQQVTVRLEERIRQASSQPRREYQPKPRMSLEFPTGDSTQPNGGLSHTGTPKPSGVQMDQPCCRALYDFEPENEGELGFKEGDIITLTNQIDENWYEGMLHGHSGFFPINYVEILVALPH [SH3GL2]	class 1
MEAQAQGLLETEPLQGTDEDAVASADFSSMLSEEEKEELKAELVQLEDEITTLRQVLSAKERHLVEIKQKLGMNLMNELKQNFSKSWHDMQTTTAYKKTHETLSHAGQKATAAFSNVGTAISKKFGDMSYSIRHSISMPAMRNSPTFKSFEERVETTVTSLKTKVGGTNPNGGSFEEVLSSTAHASAQSLAGGSRRTKEEELQC [TPD52L1]	class 1
MAAVLKPVLLGLRDAPVHGSPTGPGAWTASKLGGIPDALPTVAAPRPVCQRCGQPLALVVQVYCPLEGSPFHRLLHVFACACPGCSTGGARSWKVFRSQCLQVPEREAQDAQKQGNSLAAEDWCEGADDWGSDTEEGPSPQFTLDFGNDASSAKDVDWTARLQDLRLQDAVLGAAHPVPPGLPLFLPYYICVADEDDYRDFVNLDHAHSLLRDYQQREGIAMDQLLSQSLPNDGDEKYEKTIIKSGDQTFYKFMKRIAACQEQILRYSWSGEPLFLTCPTSEVTELPACSQCGGQRIFEFQLMPALVSMLKSANLGLSVEFGTILVYTCEKSCWPPNHQTPMEEFCIIQEDPDELLFK [PDCD2L]	class 0

Kindly consider the entry below.
Say whether MAMQMQLEANADTSVEEESFGPQPISRLEQCGINANDVKKLEEAGFHTVEAVAYAPKKELINIKGISEAKADKILAEAAKLVPMGFTTATEFHQRRSEIIQITTGSKELDKLLQGGIETGSITEMFGEFRTGKTQICHTLAVTCQLPIDRGGGEGKAMYIDTEGTFRPERLLAVAERYGLSGSDVLDNVAYARAFNTDHQTQLLYQASAMMVESRYALLIVDSATALYRTDYSGRGELSARQMHLARFLRMLLRLADEFGVAVVITNQVVAQVDGAAMFAADPKKPIGGNIIAHASTTRLYLRKGRGETRICKIYDSPCLPEAEAMFAINADGVGDAKD [RAD51] shows solubility in G1/S (log2) of 0.3 or more. class 0

---

Test system: HeLa Kyoto
Assay: solubility change mitosis vs G1/S (difference of NP-40 vs SDS log2 ratios) (log2 ratio difference); higher = more soluble in mitosis
assay.readout: solubility change mitosis (log2)

A selection of reference data follows.
substance	solubility change mitosis (log2)
MAPHDPGSLTTLVPWAAALLLALGVERALALPEICTQCPGSVQNLSKVAFYCKTTRELMLHARCCLNQKGTILGLDLQNCSLEDPGPNFHQAHTTVIIDLQANPLKGDLANTFRGFTQLQTLILPQHVNCPGGINAWNTITSYIDNQICQGQKNLCNNTGDPEMCPENGSCVPDGPGLLQCVCADGFHGYKCMRQGSFSLLMFFGILGATTLSVSILLWATQRRKAKTS [ATRAID]	0.252
MCGNNMSTPLPAIVPAARKATAAVIFLHGLGDTGHGWAEAFAGIRSSHIKYICPHAPVRPVTLNMNVAMPSWFDIIGLSPDSQEDESGIKQAAENIKALIDQEVKNGIPSNRIILGGFSQGGALSLYTALTTQQKLAGVTALSCWLPLRASFPQGPIGGANRDISILQCHGDCDPLVPLMFGSLTVEKLKTLVNPANVTFKTYEGMMHSSCQQEMMDVKQFIDKLLPPID [LYPLA1]	0.23
MSQAEFEKAAEEVRHLKTKPSDEEMLFIYGHYKQATVGDINTERPGMLDFTGKAKWDAWNELKGTSKEDAMKAYINKVEELKKKYGI [DBI]	0.148

Consider the substance MAAFRDIEEVSQGLLSLLGANRAEAQQRRLLGRHEQVVERLLETQDGAEKQLREILTMEKEVAQSLLNAKEQVHQGGVELQQLEAGLQEAGEEDTRLKASLLQLTRELEELKEIEADLERQEKEVDEDTTVTIPSAVYVAQLYHQVSKIEWDYECEPGMVKGIHHGPSVAQPIHLDSTQLSRKFISDYLWSLVDTEW [SPC24] and give its measured solubility change mitosis (log2). 0.363

Consider the substance MTPWLGLIVLLGSWSLGDWGAEACTCSPSHPQDAFCNSDIVIRAKVVGKKLVKEGPFGTLVYTIKQMKMYRGFTKMPHVQYIHTEASESLCGLKLEVNKYQYLLTGRVYDGKMYTGLCNFVERWDQLTLSQRKGLNYRYHLGCNCKIKSCYYLPCFVTSKNECLWTDMLSNFGYPGYQSKHYACIRQKGGYCSWYRGWAPPDKSIINATDP [TIMP3] and give its measured solubility change mitosis (log2). -0.0173

Consider the substance MVGRNSAIAAGVCGALFIGYCIYFDRKRRSDPNFKNRLRERRKKQKLAKERAGLSKLPDLKDAEAVQKFFLEEIQLGEELLAQGEYEKGVDHLTNAIAVCGQPQQLLQVLQQTLPPPVFQMLLTKLPTISQRIVSAQSLAEDDVE [TOMM20] and give its measured solubility change mitosis (log2). 0.294

---

# solubility in G1/S (log2) per entry
Test system: HeLa Kyoto
Assay: solubility in G1/S (NP-40 vs SDS abundance) (log2 ratio); higher = more soluble
Settings: cell cycle stage: G1/S
I only need the number, thanks.

A selection of reference data follows.
sequence.record	solubility in G1/S (log2)
MTSEVIEDEKQFYSKAKTYWKQIPPTVDGMLGGYGHISSIDINSSRKFLQRFLREGPNKTGTSCALDCGAGIGRITKRLLLPLFREVDMVDITEDFLVQAKTYLGEEGKRVRNYFCCGLQDFTPEPDSYDVIWIQWVIGHLTDQHLAEFLRRCKGSLRPNGIIVIKDNMAQEGVILDDVDSSVCRDLDVVRRIICSAGLSLLAEERQENLPDEIYHVYSFALR [NTMT1]	0.238
MAVTITLKTLQQQTFKIRMEPDETVKVLKEKIEAEKGRDAFPVAGQKLIYAGKILSDDVPIRDYRIDEKNFVVVMVTKTKAGQGTSAPPEASPTAAPESSTSFPPAPTSGMSHPPPAAREDKSPSEESAPTTSPESVSGSVPSSGSSGREEDAASTLVTGSEYETMLTEIMSMGYERERVVAALRASYNNPHRAVEYLLTGIPGSPEPEHGSVQESQVSEQPATEAAGENPLEFLRDQPQFQNMRQVIQQNPALLPALLQQLGQENPQLLQQISRHQEQFIQMLNEPPGELADISDVEGEVGAIGEEAPQMNYIQVTPQEKEAIERLKALGFPESLVIQAYFACEKNENLAANFLLSQNFDDE [RAD23A]	0.0728
MSRQAKDDFLRHYTVSDPRTHPKGYTEYKVTAQFISKKDPEDVKEVVVWKRYSDFRKLHGDLAYTHRNLFRRLEEFPAFPRAQVFGRFEASVIEERRKGAEDLLRFTVHIPALNNSPQLKEFFRGGEVTRPLEVSRDLHILPPPLIPTPPPDDPRLSQLLPAERRGLEELEVPVDPPPSSPAQEALDLLFNCESTEEASGSPARGPLTEAELALFDPFSKEEGAAPSPTHVAELATMEVESARLDQEPWEPGGQEEEEDGEGGPTPAYLSQATELITQALRDEKAGAYAAALQGYRDGVHVLLQGVPSDPLPARQEGVKKKAAEYLKRAEEILRLHLSQLPP [SNX15]	0.365

Consider the sequence MASPQLCRALVSAQWVAEALRAPRAGQPLQLLDASWYLPKLGRDARREFEERHIPGAAFFDIDQCSDRTSPYDHMLPGAEHFAEYAGRLGVGAATHVVIYDASDQGLYSAPRVWWMFRAFGHHAVSLLDGGLRHWLRQNLPLSSGKSQPAPAEFRAQLDPAFIKTYEDIKENLESRRFQVVDSRATGRFRGTEPEPRDGIEPGHIPGTVNIPFTDFLSQEGLEKSPEEIRHLFQEKKVDLSKPLVATCGSGVTACHVALGAYLCGKPDVPIYDGSWVEWYMRARPEDVISEGRGKTH [MPST] and give its measured solubility in G1/S (log2). 0.45

Consider the sequence MAEQLSPGKAVDQVCTFLFKKPGRKGAAGRRKRPACDPEPGESGSSSDEGCTVVRPEKKRVTHNPMIQKTRDSGKQKAAYGDLSSEEEEENEPESLGVVYKSTRSAKPVGPEDMGATAVYELDTEKERDAQAIFERSQKIQEELRGKEDDKIYRGINNYQKYMKPKDTSMGNASSGMVRKGPIRAPEHLRATVRWDYQPDICKDYKETGFCGFGDSCKFLHDRSDYKHGWQIERELDEGRYGVYEDENYEVGSDDEEIPFKCFICRQSFQNPVVTKCRHYFCESCALQHFRTTPRCYVCDQQTNGVFNPAKELIAKLEKHRATGEGGASDLPEDPDEDAIPIT [RNF113A] and give its measured solubility in G1/S (log2). 0.17
